- System: SN12C renal
- MEASUREMENT_PROTOCOL: NCI-60 one-dose screen, 48 h (100 = growth as untreated, 0 = no growth, -100 = all killed)
- ASSAY_CONTEXT: 10 µM unless noted
The panel holds about 83,000 compounds, 20% with a hit somewhere; the sample as a whole holds those more often. The source made the active and inactive calls. How the source made its calls: active means growth percent below 10; inactive means the rest.
Could you please report measured growth for the items listed next?

Request: Give the measured growth of CCCCCN(CCCCC)CC(O)c1ccc(C)c(Cl)c1 (centres undefined) .
Response: 101% (inactive)

Request: Repeat for the following molecule: CCC(C)/C=C(C)/C=C/C(=O)c1c(O)c(-c2ccc(O)cc2)c[nH]c1=O (centres undefined)
Response: 60.5% (inactive)

Request: Repeat for the following molecule: CCC[CH2][Sn]1([CH2]CCC)[O]C(=O)c2cccc([N+](=O)[O-])c2C(=O)[O]1
Response: -83.4% (active)

Request: Repeat for the following molecule: O=C1NC(=O)C(CN2C(=O)C3(c4ccccc42)[C@H](Cl)C(=O)N3c2ccccc2)C(=O)N1 (some centres undefined)
Response: 97.4% (inactive)

Request: Repeat for the following molecule: O=C(NCc1ccc([N+](=O)[O-])cc1)Nc1ccc(S(=O)(=O)F)cc1
Response: 85.8% (inactive)

Request: Repeat for the following molecule: CC1COC(=O)C1 (centres undefined)
Response: 98.4% (inactive)

Request: Repeat for the following molecule: COc1cc(C2(C#N)CCN(C)CC2)cc(OC)c1OC
Response: 103% (inactive)

Request: Repeat for the following molecule: COc1cc2c(cc1OC)CN(C)C(C)C2 (centres undefined)
Response: 94.2% (inactive)

Request: Repeat for the following molecule: S=P(Nc1ccccc1)(Nc1ccccc1)c1ccccc1
Response: 104% (inactive)

Request: Repeat for the following molecule: Cc1cccc(N=C2c3cc([N+](=O)[O-])ccc3-c3c2cc([N+](=O)[O-])cc3[N+](=O)[O-])c1
Response: 26.4% (inactive)

Request: Repeat for the following molecule: NC(=O)C(Br)CBr (centres undefined)
Response: 22% (inactive)

Request: Repeat for the following molecule: O=C(NCCNC(=O)c1ccc([As](O)O)cc1)c1ccc([As](O)O)cc1
Response: 113% (inactive)

Request: Repeat for the following molecule: O=C1C=CC(=O)C2C1C1(Cl)C(Cl)=C(Cl)C2(Cl)C1(Cl)Cl (centres undefined)
Response: 67.3% (inactive)

Request: Repeat for the following molecule: COC(=O)C(=[N+]=[N-])C(=O)OC
Response: 98% (inactive)

Request: Repeat for the following molecule: COc1ccc(NP2(=O)OCC(C)(N)CO2)cc1 (centres undefined)
Response: 105% (inactive)

Request: Repeat for the following molecule: COc1cc(NCCCCCN=C(N)N)c2ncccc2c1
Response: 7.58% (active)

Request: Repeat for the following molecule: O=C(O)c1nn(Cc2ccc(Cl)cc2)c2ccccc12
Response: 93.7% (inactive)

Request: Repeat for the following molecule: O=[N+]([O-])c1ccc(F)c([N+](=O)[O-])c1F
Response: 103% (inactive)

Request: Repeat for the following molecule: CCOP(=O)(OCC)Oc1ccc(Sc2ccc(OP(=O)(OCC)OCC)cc2)cc1
Response: 101% (inactive)

Request: Repeat for the following molecule: O=C(CCF)c1ccc(O)cc1
Response: 100% (inactive)

Request: Repeat for the following molecule: OC1(c2ccc(Cl)cc2Cl)c2ccccc2C2=NCCN21 (centres undefined)
Response: 92.4% (inactive)

Request: Repeat for the following molecule: CNC(C)Cc1ccccc1 (centres undefined) (tested in a mixture with another compound)
Response: 104% (inactive)

Request: Repeat for the following molecule: NC(Cc1ccc2c(c1)OCO2)c1ccc2c(c1)OCO2 (centres undefined)
Response: 94% (inactive)

Request: Repeat for the following molecule: Oc1ccc(O)c2c1C1(Cl)C(Cl)=C(Cl)C2(Cl)C1(Cl)Cl
Response: 56.4% (inactive)
